# Tested on: MES236
# run description: Cell viability, adult glioma MES236
# Format: cell-based
In plain terms, low IC50, meaning strictly below 1000 nM, gives MET, and everything else gives NOT MET.

Ask: Hello, I'm reviewing records and need to know if IC50 of CC1(C)CC[C@]2(C(=O)O)CC[C@]3(C)[C@H](C(=O)C=C4[C@@]5(C)C=C(C#N)C(=O)C(C)(C)[C@@H]5CC[C@]43C)[C@@H]2C1 is below 1000 nM. Could you check?
Result: NOT MET

Ask: Does Cc1sc2c(c1C)C(c1ccc(Cl)cc1)=NC(CC(=O)OC(C)(C)C)c1nnc(C)n1-2 (centres unmarked) have IC50 strictly under 1000 nM?
Result: NOT MET

Ask: Take the compound Cc1sc2c(c1C)C(c1ccc(Cl)cc1)=NC(CC(=O)NCCCOCCOCCOCCCNC(=O)[C@]13CCC(C)(C)C[C@H]1[C@H]1C(=O)C=C4[C@@]5(C)C=C(C#N)C(=O)C(C)(C)[C@@H]5CC[C@@]4(C)[C@]1(C)CC3)c1nnc(C)n1-2 (some centres unmarked) and say whether its IC50 is less than 1000 nM.
Result: MET

Ask: Given the entry CC1=C(O)C(=O)C=C2C1=CC=C1[C@@]2(C)CC[C@@]2(C)[C@@H]3C[C@](C)(C(=O)O)CC[C@]3(C)CC[C@]12C , would its reported IC50 be below 1000 nM?
Result: NOT MET

Ask: Say whether its IC50 is strictly beneath 1000 nM. Entry: CC1=C(O)C(=O)C=C2C1=CC=C1[C@@]2(C)CC[C@@]2(C)[C@@H]3C[C@](C)(C(=O)NCCCOCCOCCOCCCNC(=O)CC4N=C(c5ccc(Cl)cc5)c5c(sc(C)c5C)-n5c(C)nnc54)CC[C@]3(C)CC[C@]12C (some centres unmarked)
Result: MET

----------
# Test system: MGG6
# run description: Cell viability, adult glioma MGG6
# Format: cell-based
For each of the compounds below, state its IC50.
Include the unit after the number when you answer.

Ask: State the recorded IC50 for this entry: Cc1sc2c(c1C)C(c1ccc(Cl)cc1)=NC(CC(=O)NCCCOCCOCCOCCCNC(=O)[C@]13CCC(C)(C)C[C@H]1[C@H]1C(=O)C=C4[C@@]5(C)C=C(C#N)C(=O)C(C)(C)[C@@H]5CC[C@@]4(C)[C@]1(C)CC3)c1nnc(C)n1-2 (stereo partly shown)
Result: 357 nM

Ask: Please report the recorded IC50 for CC1=C(O)C(=O)C=C2C1=CC=C1[C@@]2(C)CC[C@@]2(C)[C@@H]3C[C@](C)(C(=O)O)CC[C@]3(C)CC[C@]12C .
Result: 1230 nM

Ask: Look up IC50: CC1=C(O)C(=O)C=C2C1=CC=C1[C@@]2(C)CC[C@@]2(C)[C@@H]3C[C@](C)(C(=O)NCCCOCCOCCOCCCNC(=O)CC4N=C(c5ccc(Cl)cc5)c5c(sc(C)c5C)-n5c(C)nnc54)CC[C@]3(C)CC[C@]12C (stereo partly shown)
Result: 99.3 nM

Ask: State the recorded IC50 for this entry: CC1(C)CC[C@]2(C(=O)O)CC[C@]3(C)[C@H](C(=O)C=C4[C@@]5(C)C=C(C#N)C(=O)C(C)(C)[C@@H]5CC[C@]43C)[C@@H]2C1
Result: 964 nM
